test system: OVCAR-4 ovarian; experiment: NCI tumour cell line growth inhibition, 48 h
recorded.endpoint: GI50

Here are 3 molecules together with their reported answers.
{"molecule": "COc1cccc(-n2ncc3c(N/N=C/c4ccc(S(C)(=O)=O)cc4)ncnc32)c1", "GI50": "13.1 µM"}
{"molecule": "CCC[CH2][Ge]([CH2]CCC)([CH2]CCC)[O]C(=O)C(OC)c1ccccc1 (centres undefined)", "GI50": "15.3 µM"}
{"molecule": "COc1ccc(/C=C/C(=O)c2ccc3cc(OC)c(OC)cc3c2)cc1OC", "GI50": "3.5 µM"}

Shifting focus to the molecule that follows.
-- ask Quote GI50 with test system OVCAR-4 ovarian for `C=CC(=O)N1CCC([C@@H]2CCNc3c(C(N)=O)c(-c4ccc(Oc5ccccc5)cc4)nn32)CC1`
-- reply 13.5 µM
